System: spores of ATCC 630 strain
assay_remarks: Inhibition of germination of C. difficile spores (MIC), strain ATCC 630
Format: cell-based
assay_context: Clostridioides difficile, ATCC630, 1 h; strain 630; sodium taurocholate as germinant, BHIS medium, 37° C., OD580 for 60 min; read-out: MIC (minimum concentration that completely inhibits spore germination)
Entries and their MIC values follow.

These solved cases illustrate the format of a correct answer.
{"columns": ["molecule", "result_value"],
 "data": [
  ["CC(NC(=O)C[C@@H](C)[C@H]1CC[C@H]2[C@@H]3[C@H](O)C[C@@H]4C[C@H](O)CC[C@]4(C)[C@H]3CC[C@]12C)c1cccs1 (stereo partly shown)", "4 µM"],
  ["CC(C)[C@@H](NC(=O)C[C@@H](C)[C@H]1CC[C@H]2[C@@H]3[C@H](OC(=O)CCCCCCC(=O)O)C[C@@H]4CC(=O)CC[C@]4(C)[C@H]3CC[C@]12C)c1ccc(Cl)s1", "0.125 µM"],
  ["C[C@H](CC(=O)NCc1cccs1)[C@H]1CC[C@H]2[C@@H]3[C@@H](O)C[C@@H]4C[C@H](O)CC[C@]4(C)[C@H]3CC[C@]12C", "256 µM"],
  ["CC[C@@H](NC(=O)C[C@@H](C)[C@H]1CC[C@H]2[C@@H]3[C@H](OC(=O)CCCCCCC(=O)O)C[C@@H]4CC(=O)CC[C@]4(C)[C@H]3CC[C@]12C)c1ccc(Cl)s1", "0.125 µM"]
]}

`CC(C)[C@@H](NC(=O)C[C@@H](C)[C@H]1CC[C@H]2[C@@H]3[C@H](OC(=O)CCC(=O)O)C[C@@H]4CC(=O)CC[C@]4(C)[C@H]3CC[C@]12C)c1ccc(Cl)s1` yielded MIC of 2 µM

`CC[C@@H](NC(=O)C[C@@H](C)[C@H]1CC[C@H]2[C@@H]3[C@H](O)[C@H](O)[C@@H]4CC(=O)CC[C@]4(C)[C@H]3CC[C@]12C)c1ccc(Br)s1` yielded MIC of 64 µM

`CC(C)[C@@H](NC(=O)C[C@@H](C)[C@H]1CC[C@H]2[C@@H]3[C@H](OP(=O)(O)O)C[C@@H]4CC(=O)CC[C@]4(C)[C@H]3CC[C@]12C)c1ccc(Cl)s1` yielded MIC of 64 µM
